# System: Fibroblast
# Assay Text: Incucyte cell viability with human fibroblast; note: unitless GR value; below 1 slowed growth and below 0 cell loss
# Type: toxicity, cell-based
# Experimental Context: 0 h, 10 µM, compound concentration 10 uM, replicate number 1
Observable: Growth Rate
// keep it numeric: no unit symbol after the value

- COC(=O)c1ccc2c(c1)NC(=O)/C2=C(\Nc1ccc(N(C)C(=O)CN2CCN(C)CC2)cc1)c1ccccc1: 0.43

IN: Item `COc1cc(CN(CCN)C(=O)N[C@@H](C)c2ccccc2)ccc1OCc1ccccc1.Cl` with Fibroblast - Growth Rate?
OUT: -1

IN: Item COP(=O)(CCC(N)C(=O)O)Oc1cccc(CC(=O)O)c1 (centres undefined) with Fibroblast - Growth Rate?
OUT: -1

IN: Item `NC(=O)c1sc2nc(N3CCC(NC[C@H](O)c4ccccn4)CC3)cc(C(F)(F)F)c2c1N` with Fibroblast - Growth Rate?
OUT: 0.86

IN: Item `CN1CCN(c2ccc(Nc3ncc4cc5n(c4n3)C3(CCCCC3)CNC5=O)nc2)CC1` with Fibroblast - Growth Rate?
OUT: -1

====

# System: HEK-293T
# Assay Text: Incucyte cell viability with HEK293T; note: unitless GR value; below 1 slowed growth and below 0 cell loss
# Assay type: toxicity, cell-based
# Experimental Context: human, 24 h, 10 µM, compound concentration 10 uM, replicate number 2
The following ranges of Growth Rate define the classes used here: bottom: < 0.6; middle: ≥ 0.6 and < 0.8; top: ≥ 0.8

• Cn1cc(-c2ccc3occ(-c4cccc(-c5ccncc5)c4)c3n2)cn1 = bottom

IN: Category of `COc1ccccc1-n1nc(C2CC(C)(C)OC(C)(C)C2)cc1-c1ccc(Cl)cc1` , please.
OUT: middle

IN: Category of Oc1cc2c(cc1O)CN(C(=S)NCCc1ccc(Cl)cc1)CCC2 [CAPSAZEPINE] , please.
OUT: bottom

IN: Category of `O=C1CCCc2[nH]c(-c3ccnc(NCC4CC4)c3)c(Nc3ccccc3)c21` , please.
OUT: middle

====

# Test system: HEK-293T
# Assay Text: Incucyte cell viability with HEK293T; note: unitless GR value; below 1 slowed growth and below 0 cell loss
# Type: toxicity, cell-based
# Experimental Context: human, 6 h, 10 µM, compound concentration 10 uM, replicate number 2
# label = TRUE if Growth Rate >= -0.5 else FALSE

Look over these answered cases.
• CC1(C)C[C@@H]1C(=O)N/C(=C\CCCCSC[C@H](N)C(=O)O)C(=O)O = TRUE
• CC(C)(O)[C@H](F)CN1Cc2cc(NC(=O)c3cnn4cccnc34)c(N3CCOCC3)cc2C1=O = TRUE
• NC(=O)C1CCCc2c1[nH]c1ccc(Cl)cc21 (stereo not drawn) = TRUE

IN: Does Growth Rate meet or surpass -0.5 for `C#Cc1cnc2[nH]cc(-c3cccc4c3CCN4C(=O)[C@@H]3CCCN3C#N)c2c1` ?
OUT: FALSE

IN: Does Growth Rate meet or surpass -0.5 for `O=C(O)CCCc1cc2cc(Cl)ccc2n1S(=O)(=O)c1ccc2ncsc2c1` ?
OUT: TRUE

IN: Does Growth Rate meet or surpass -0.5 for `CC(C)(C)c1cnc(CSc2cnc(NC(=O)C3CCNCC3)s2)o1` ?
OUT: FALSE

IN: Does Growth Rate meet or surpass -0.5 for `CNC(=O)c1cccc(-c2ccc3c(N4CCOC[C@@H]4C)nc(N4CCOC[C@@H]4C)nc3n2)c1` ?
OUT: FALSE

IN: Does Growth Rate meet or surpass -0.5 for `CCN1C(=O)c2cc(C)ccc2N(C)c2ncccc21` ?
OUT: TRUE

IN: Does Growth Rate meet or surpass -0.5 for `O=C1CN(c2ccccc2F)C(NCCN2CCOCC2)=C1c1nc2cc(Br)ccc2c(=O)[nH]1` ?
OUT: TRUE

IN: Does Growth Rate meet or surpass -0.5 for CCC(=O)O[C@@H](OP(=O)(CCCCc1ccccc1)CC(=O)N1C[C@H](C2CCCCC2)C[C@H]1C(=O)[O-])C(C)C.[Na+] (stereo partly drawn) ?
OUT: TRUE

IN: Does Growth Rate meet or surpass -0.5 for `CCN(CC)C/C=C/C(=O)Nc1cc2c(Nc3ccc(F)c(Cl)c3)ncnc2cc1OCC1CC1` ?
OUT: TRUE

IN: Does Growth Rate meet or surpass -0.5 for `CCNC1=N[C@@H]2[C@@H](O)[C@H](O)[C@@H](CO)O[C@@H]2S1` ?
OUT: TRUE

IN: Does Growth Rate meet or surpass -0.5 for `NS(=O)(=O)c1cncc(-c2nc(NCc3ccccn3)c3c(-c4ccccc4)cccc3n2)c1` ?
OUT: TRUE

IN: Does Growth Rate meet or surpass -0.5 for CN1CCN(c2ccnc(NCCc3ccccc3)n2)CC1 [TP-040n] ?
OUT: TRUE

====

# Test system: Fibroblast
# Assay Text: Incucyte cell viability with human fibroblast; note: unitless GR value; below 1 slowed growth and below 0 cell loss
# Assay type: toxicity, cell-based
# Experimental Context: 12 h, 10 µM, compound concentration 10 uM, replicate number 2
Observable: Growth Rate
// keep it numeric: no unit symbol after the value

Solved cases (5 shown):
* CCOC(=O)c1c(/C(C#N)=C\N)c2ccc(Cl)c(Cl)c2n1C | 0.88
* COc1ccc(NC(=O)[C@@H]2C[C@H](C)CC[C@H]2C(C)C)cc1 | 0.74
* CCCCCCCCCCCCCC(=O)O[C@@H]1[C@@H](C)[C@@]2(O)[C@@H](C=C(CO)C[C@]3(O)C(=O)C(C)=C[C@@H]23)[C@@H]2C(C)(C)[C@]12OC(C)=O [PHORBOL MYRISTATE ACETATE] | 0.09
* CNC1(C)C2CCC(C2)C1(C)C.Cl (configuration not stated) [MECAMYLAMINE HYDROCHLORIDE] | 0.66
* CC(C)c1nc2c(c3c1[C@H](c1ccc(C(F)(F)F)cc1)OC31CCOCC1)[C@H](O)CC(C)(C)C2 | -0.47

IN: Which value of Growth Rate has been reported for `CN1C(=O)Cc2ccc(-c3ccc(C[C@@H](C#N)NC(=O)[C@H]4N[C@@H]5CC[C@H]4C5)c(F)c3)cc21` in the records?
OUT: 0.43

IN: Which value of Growth Rate has been reported for `Cc1[nH]nc(C(F)(F)F)c1Cc1sc2c(c1C(=O)N1C[C@](C)(O)CO1)c(=O)n(C)c(=O)n2C(C)C` in the records?
OUT: 0.69

====

Reported Growth Rate values for the following molecules.
# Test system: HEK-293T
# Assay Text: Incucyte cell viability with HEK293T; note: unitless GR value; below 1 slowed growth and below 0 cell loss
# Assay type: toxicity, cell-based
# Experimental Context: human, 18 h, 10 µM, compound concentration 10 uM, replicate number 2

Solved cases (4 shown):
- O=C1NCCSc2c1sc1ccc(O)cc21: -0.06
- O=C1COc2cc(C(=O)N(Cc3ccc(C(=O)Nc4ccncn4)cc3)C3CC3)ccc2N1: 0.66
- c1ccc2c(-c3coc4cc(-c5ccc(N6CCNCC6)cc5)cnc34)ccnc2c1: -0.43
- CN1CCC[C@H]1c1cccnc1: 0.76

IN: Which value of Growth Rate has been reported for COc1cc(C(=O)NCCOCCOCCOCCC(=O)Nc2cccc3c2C(=O)N(C2CCC(=O)NC2=O)C3=O)ccc1Nc1ncc(C(F)(F)F)c(Oc2cccc3c2C(=O)CC3)n1 (stereo not given) in the records?
OUT: 0.69

====

Reported Growth Rate values for the following molecules.
# System: Fibroblast
# Assay Text: Incucyte cell viability with human fibroblast; note: unitless GR value; below 1 slowed growth and below 0 cell loss
# Type: toxicity, cell-based
# Experimental Context: 18 h, 10 µM, compound concentration 10 uM, replicate number 2

Solved cases (3 shown):
* CCCCNc1ncc2c(-c3ccc(CN4CCN(C)CC4)cc3)cn([C@H]3CC[C@H](O)CC3)c2n1 | -0.25
* Cn1ncnc1COc1nn2c(-c3cc(F)ccc3F)nnc2cc1C(C)(C)C | 0.56
* CCCCCCCCCCCCCC(=O)O[C@@H]1[C@@H](C)[C@@]2(O)[C@@H](C=C(CO)C[C@]3(O)C(=O)C(C)=C[C@@H]23)[C@@H]2C(C)(C)[C@]12OC(C)=O [PHORBOL MYRISTATE ACETATE] | 0.85

IN: Which value of Growth Rate has been reported for `CCC(=O)N[C@H]1CC[C@@H](C(=O)N(C)c2ccc(-c3nc4ccccc4o3)cc2)C1` in the records?
OUT: 0.98

IN: Which value of Growth Rate has been reported for `Cc1ccc(NC(=O)c2ccc3c(c2)OCCO3)cc1NC(=O)c1ccc2nc(OCCN3CCCC3)ccc2c1` in the records?
OUT: -0.22

IN: Which value of Growth Rate has been reported for `COc1cc(F)ccc1-c1ncnc(Nc2cccc(C[S@](C)(=N)=O)c2)n1` in the records?
OUT: -0.2

IN: Which value of Growth Rate has been reported for `Cc1nc(Nc2cnn(C3CCNCC3)c2)nc2c1N(C)C(=O)c1cc3ccccc3cc1N2C` in the records?
OUT: 0.06

IN: Which value of Growth Rate has been reported for `Cn1cc(C(=O)O)c2ccc(N3CCC(OCc4c(-c5c(Cl)cccc5Cl)noc4C4CC4)CC3)cc21` in the records?
OUT: 0.97

IN: Which value of Growth Rate has been reported for Oc1cc2c(cc1O)CN(C(=S)NCCc1ccc(Cl)cc1)CCC2 [CAPSAZEPINE] in the records?
OUT: 0.44

IN: Which value of Growth Rate has been reported for `N#Cc1ccnc(Nc2cc(C3CCN(C4COC4)CC3)cc(N3CCC(F)(F)C3)n2)c1` in the records?
OUT: 0.21

IN: Which value of Growth Rate has been reported for `COc1ccc(F)c(F)c1C(=O)c1cnc(NC2CCN(S(C)(=O)=O)CC2)nc1N` in the records?
OUT: 0.28

IN: Which value of Growth Rate has been reported for `Cn1cncc1-c1cn(-c2cccc(C(=O)Nc3cccc(C(F)(F)F)c3)c2)nn1` in the records?
OUT: 0.64

IN: Which value of Growth Rate has been reported for `CC(C)C[C@H](NC(=O)c1cc2ccccc2s1)C(=O)N1CCN(C(=O)[C@H](CO)NS(=O)(=O)c2ccc(Cl)cc2Cl)CC1` in the records?
OUT: 0.68

IN: Which value of Growth Rate has been reported for `CCn1cnc2c(-c3ccc(F)c(-c4ccc(S(=O)(=O)CC)cc4OC)c3)cnnc21` in the records?
OUT: -0.67

IN: Which value of Growth Rate has been reported for `O=C1NCCc2c(OCCCCN3CCCCC3)cccc21` in the records?
OUT: 0.79

IN: Which value of Growth Rate has been reported for `CCc1ncnc(N2CCN(C(C)=O)CC2)c1C#Cc1ccc(N)nc1.Cl.Cl` in the records?
OUT: 0.52

IN: Which value of Growth Rate has been reported for `O=C(Nc1snnc1C(=O)Nc1ccc(N2CCCC2)cc1)c1cncc(C(F)(F)F)c1` in the records?
OUT: 0.43
